Recorded Ka values for a group of binders are listed next.
# measurement-target: T1, Aβ peptide (β-amyloid peptide; form and length not stated for the assay) (UniProt P05067 672-713)
# T1 construct: also called beta amyloid peptide
# protocol: BIAcore, Langmuir model (global analysis)
Write the number in M⁻¹ without appending the unit.

// query Quick one: Ka for humanized 12A11 version 2 (antibody, V domains shown, V region subcloned into heavy chain expression vector pCMV-Cgamma1 (human γ1); also called h12A11v2) VH: QVQLVESGGGVVQPGRSLRLSCAFSGFTLSTSGMSVGWIRQAPGKGLEWVAHIWWDDDKYYNPSLKSRFTISKDTSKNTLYLQMNSLRAEDTAVYYCARRTTTADYFAYWGQGTTVTVSS VL: DVVMTQSPLSLPVTPGEPASISCRSSQSIVHSNGNTYLEWYLQKPGQSPQLLIYKVSNRFSGVPDRFSGSGSGTDFTLKISRVEAEDVGVYYCFQSSHVPLTFGQGTKLEIK ?
// result 6.86e+07

// query Look at this binder and give its reported Ka. humanized 12A11 version 3.1 (antibody, V domains shown, Variable regions only tied to the tested antibody; also called h12A11v3.1; humanized 12A11 v3.1) VH: QVQLVESGGGVVQPGRSLRLSCAFSGFTLSTSGMSVGWIRQAPGKGLEWLAHIWWDDDKYYNPSLKSRFTISKDNSKNTLYLQMNSLRAEDTAVYYCARRTTTADYFAYWGQGTTVTVSS VL: DVVMTQSPLSLPVTPGEPASISCRSSQSIVHSNGNTYLEWYLQKPGQSPQLLIYKVSNRFSGVPDRFSGSGSGTDFTLKISRVEAEDVGVYYCFQSSHVPLTFGQGTKLEIK
// result 1.67e+08

---
// query Look at this binder and give its reported Ka. humanized 12A11 version 3 (antibody, V domains shown, Variable regions only; made like version 2; also called h12A11v3; humanized 12A11 v3) VH: QVQLVESGGGVVQPGRSLRLSCAFSGFTLSTSGMSVGWIRQAPGKGLEWVAHIWWDDDKYYNPSLKSRFTISRDNSKNTLYLQMNSLRAEDTAVYYCARRTTTADYFAYWGQGTTVTVSS VL: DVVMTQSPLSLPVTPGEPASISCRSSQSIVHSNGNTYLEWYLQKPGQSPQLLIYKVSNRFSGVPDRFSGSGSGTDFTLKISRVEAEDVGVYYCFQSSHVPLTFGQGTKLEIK
// result 6.53e+07

// query Can you look up the measured Ka of humanized 12A11 version 2.1 (antibody, V domains shown, Variable regions only; made like version 2; also called h12A11v2.1) VH: QVQLVESGGGVVQPGRSLRLSCAFSGFTLSTSGMSVGWIRQAPGKGLEWVAHIWWDDDKYYNPSLKSRFTISKDNSKNTLYLQMNSLRAEDTAVYYCARRTTTADYFAYWGQGTTVTVSS VL: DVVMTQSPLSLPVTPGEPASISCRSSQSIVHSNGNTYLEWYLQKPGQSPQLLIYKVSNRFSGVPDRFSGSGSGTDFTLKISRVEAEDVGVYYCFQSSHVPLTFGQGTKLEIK for me?
// result 1.17e+08

// query What measured Ka goes with humanized 12A11 version 1 (antibody, V domains shown, Variable regions only tied to the tested antibody; also called h12A11v1; humanized 12A11 v1) VH: QVQLVESGGGVVQPGRSLRLSCAFSGFSLSTSGMSVGWIRQAPGKGLEWLAHIWWDDDKYYNPSLKSRLTISKDTSKNTVYLQMNSLRAEDTAVYYCARRTTTADYFAYWGQGTTVTVSS VL: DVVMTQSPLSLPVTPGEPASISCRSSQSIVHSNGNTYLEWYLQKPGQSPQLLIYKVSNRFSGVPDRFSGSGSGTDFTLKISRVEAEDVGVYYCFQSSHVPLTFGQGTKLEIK ?
// result 3.48e+08
